Test system: A. baumannii A401
Test method notes: Preliminary MBC without and with sub-inhibitory polymyxin B (Example 4)
Assay type: cell-based, Acinetobacter baumannii
Reported conditions: Acinetobacter baumannii, A401, A baumannii A 401, +0.06 μg/ml PB, 2nd experiment, read-out: MBC
As shown below, each of these molecules has a reported MBC value.
The answer is to be given in µg/mL; state only the numeric part.

As a guide, the following entries are already answered.
>>> value_reported("Cc1c(-c2ccc(N)cc2)ccn2c(=O)c(C(=O)O)cc(C3CC3)c12")
0.25
>>> value_reported("Cc1c(-c2ccc(CN)c(F)c2)ccn2c(=O)c(C(=O)O)cc(C3CC3)c12")
0.5
>>> value_reported("Cc1c(-c2cc(Cl)c(N)c(Cl)c2)ccn2c(=O)c(C(=O)O)cc(C3CC3)c12")
0.125
>>> value_reported("C[C@H]1COc2c(N3CCN(C)CC3)c(F)cc3c(=O)c(C(=O)O)cn1c23 [Levofloxacin, reference compound]")
8
>>> value_reported("Cc1c(-c2ccc(CN)cc2)c(F)cn2c(=O)c(C(=O)O)cc(C3CC3)c12")
32

Sure, the documented MBC for `Cc1c(-c2ccc(N)cc2)c(F)cn2c(=O)c(C(=O)O)cc(C3CC3)c12` is 0.5

Sure, the documented MBC for `Cc1c(-c2ccc(CN)cc2)ccn2c(=O)c(C(=O)O)cc(C3CC3)c12` is 4

Sure, the documented MBC for `C[C@@H](O)[C@H]1C(=O)N2C(C(=O)O)=C(S[C@@H]3CN[C@H](C(=O)N(C)C)C3)[C@H](C)[C@H]12` is 4

###

As shown below, each of these compounds has a reported FICy value.
Tested on: GN52 Acinetobacter baumannii levofloxacin resistant clinical isolate
Test method notes: Chequerboard synergy with polymyxin B, FICI (Example 6)
Assay type: cell-based
Lab note: record the figure alone, no unit after it.

As a guide, the following entries are already answered.
>>> value_reported("Cc1c(-c2ccc(N)nc2)ccn2c(=O)c(C(=O)O)cc(C3CC3)c12")
0.24
>>> value_reported("C[C@H]1COc2c(N3CCN(C)CC3)c(F)cc3c(=O)c(C(=O)O)cn1c23 [Levofloxacin, reference compound]")
1.00
>>> value_reported("Cc1c(-c2ccc3[nH]ncc3c2)ccn2c(=O)c(C(=O)O)cc(C3CC3)c12")
0.24

Now, please, on to the next compound.
Noted FICy for `Cc1c(-c2cc(F)c(N)cc2F)ccn2c(=O)c(C(=O)O)cc(C3CC3)c12` , tested on GN52 Acinetobacter baumannii levofloxacin resistant clinical isolate: 0.24

###

As shown below, each of these compounds has a reported MIC without PB/MIC + PB value.
System: A. baumannii A390
Test method notes: MIC without and with sub-inhibitory polymyxin B (Example 4)
Type: cell-based, Acinetobacter baumannii
Reported conditions: A. baumannii A390; +0.06 μg/ml PB; 2nd experiment
Lab note: record the figure alone, no unit after it.

>>> value_reported("Cc1c(-c2ccc(CN)cc2)c(F)cn2c(=O)c(C(=O)O)cc(C3CC3)c12 [Compound 6]")
8

Now, please, on to the next compound.
Sure, the documented MIC without PB/MIC + PB for COc1c(N2C[C@@H]3CCCN[C@@H]3C2)c(F)cc2c(=O)c(C(=O)O)cn(C3CC3)c12 [Moxifloxacin] is 2
